# assay.overview: CCTE_Shafer_MEA_acute_LDH: CCTE's Lactate Dehydrogenase Assay for Cytotoxicity in the Neural Acute Assay, Shafer Lab (AID 2284086);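 further: active means LDH release rises above DMSO vehicle level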
Records with an inconclusive call do not appear. Calls of active or inactive are those of the source. How the source made its calls: active means hit-call score of the fitted dose curve at least 0.9, where 1 is the maximum; inconclusive means response in the unintended direction; inactive means score below 0.9.
experimental.endpoint: outcome

CCCC(C)C(=O)OCC (stereo not drawn)    inactive
CC(CCC(=O)O)(c1ccc(O)cc1)c1ccc(O)cc1    inactive
CC(C)C(=O)OCCc1ccccc1    inactive

* * *

# assay.overview: ACEA_ER_AUC_viability: ACEA Biosciences xCELLigence Real-Time Cell Analysis on Estrogen Receptor Agonism for Viability (AID 2283782);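 further: continuous compound exposure with impedance area under curve over 80 h; hit means loss of impedance signal meaning reduced cell growth or viability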
Results filed as inconclusive are left out. Activity calls are given as the source filed them. How the source made its calls: active means hit-call score of the fitted dose curve at least 0.9, where 1 is the maximum; inconclusive means response in the unintended direction; inactive means score below 0.9.
experimental.endpoint: AC50

Answered cases to consult:
C=C(C)OC(C)=O    inactive
CCCCCCCCCCCCCC(=O)OC(C)C    inactive
CCOC(=O)C1=NOC(c2ccccc2)(c2ccccc2)C1    inactive
CC1=NN(c2ccc(S(=O)(=O)O)cc2)C(=O)C1N=Nc1ccccc1 (stereo unspecified)    inactive
CC(=O)OCc1ccccc1    inactive
C=CC(=O)OCCCCCCCC(C)C    inactive
COc1nccnc1CC(C)C    inactive
CC(C)(CO)C(O)C(=O)NCCCO (stereo unspecified)    inactive
CN1CCN(C)CC1    inactive
CCCCCCCC(=O)OCC    inactive

What the record says about "CCCCCCCCCCCCc1ccc(O)cc1" : AC50 is 20 µM (active)

What the record says about "Fc1ccc(Br)cc1" : AC50 is inactive

What the record says about "O=C1CCCN1C1CCCCC1" : AC50 is inactive

What the record says about "CC(C)CCOCc1ccccc1" : AC50 is inactive

What the record says about "C=CCOC(=O)c1ccc(C(=O)OCC=C)c(C(=O)OCC=C)c1" : AC50 is inactive

What the record says about "O=C(O[C@@H]1Cc2c(O)cc(O)cc2O[C@@H]1c1cc(O)c(O)c(O)c1)c1cc(O)c(O)c(O)c1" : AC50 is 61 µM (active)

What the record says about "[Cl][Sc]([Cl])[Cl]" : AC50 is inactive

What the record says about "C=CC(=O)NC(C)(C)C" : AC50 is inactive

What the record says about "[Cl][Eu]([Cl])[Cl]" : AC50 is inactive

What the record says about "O=C(OCc1ccccc1)c1ccc(O)cc1" : AC50 is 82.6 µM (active)

What the record says about COC(=O)CC(C)CCC=C(C)C (stereo unspecified) : AC50 is inactive

Hello, the source for this data is PubChem BioAssay (EPA / NIEHS), in case you need it.
